TESTED_SYSTEM: T1, recombinant human CFD, His-tagged (human, UniProt P00746 26-253)
T1 construct: also called rhCFD-His
T1 sequence (P00746 26-253 limits assumed): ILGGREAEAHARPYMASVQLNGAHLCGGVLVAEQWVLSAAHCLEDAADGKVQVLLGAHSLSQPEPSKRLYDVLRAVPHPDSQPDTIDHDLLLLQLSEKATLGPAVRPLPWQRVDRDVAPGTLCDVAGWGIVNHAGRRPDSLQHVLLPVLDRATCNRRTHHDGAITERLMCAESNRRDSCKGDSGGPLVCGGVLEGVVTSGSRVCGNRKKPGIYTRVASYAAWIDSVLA
EXPERIMENTAL_DETAILS: SPR MX96
Field: pKd. Provide a value for each of the binders that follow.
One number for each entry, as −log10 of the molar value.

| BINDER | OBS_VALUE |
| --- | --- |
| KCD015 (antibody, V domains shown) VH: EVQLQQSGAELVKPGASVKLSCTASGFNIKDTYMHWVKQRPEQGLEWIGRIDPANGYTEYDPKFQGKATITADTSSNTAYLQLSSLTSEDSAAYYCTSAMEFWGQGTSVTVSS VL: QIVLTQSPAILSASPGEKVTMTCSASSSVSYIYWYQQKPRSSPRLLIYDTSNLASGVPVRFSGSGSGTSYSLTISRMEAEDAATYYCQQWSSYPFTFGGGTKLEVK | 8.35 |

Now, please, on to the next binder.
Bench note: what pKd did KCD064 (antibody, V domains shown) VH: EVKLVESGGGLVQPGGSLKLSCAASGFTFSSYIMSWVRQTPEKRLGWVAYITSGGGSTYYPDTVKGRFTISRDNAKNTLYLQMSSLKSEDTAMYYCARHGTGYAMDYWGQGTSVTVSS VL: DIQMTQSPSSLSASLGGKVTITCKASQDINKYIAWYQHKPGKGPRLLIHYTSTLQPGIPSRFSGSGSGRDYSFSISNLEPEDIATYYCLQYDNLLYTFGGGTELEIK show?
7.70
